Total movement distance for assorted compounds
System: aluminium trichloride-induced zebrafish juveniles
Experiment: Effects of compounds on aluminium trichloride-induced behavioural inhibition of zebrafish juveniles (Zebrobox)
Conditions: 10 mg/L compound + 5.0 mg/L AlCl3, 3 days; mean ± SE, n=8
Report the value in cm with no unit label.

INSERT INTO measurements (compound, measurement_kind, value) VALUES
  ('COc1cccc2cc(-c3ccc(NC(=O)c4ccc(C(F)(F)F)cc4)cc3)c(=O)oc12 [Compound 4l]', 'Total movement distance', 194.6),
  ('COc1cccc2cc(-c3ccc(NC(=O)c4ccc(CCl)cc4)cc3)c(=O)oc12 [Compound 4m]', 'Total movement distance', 210.2),
  ('COc1cccc2cc(-c3ccc(NC(=O)c4cccs4)cc3)c(=O)oc12 [Compound 7d]', 'Total movement distance', 208.4),
  ('COc1cccc2cc(-c3ccc(NC(=O)c4cccc(F)c4)cc3)c(=O)oc12 [Compound 4j]', 'Total movement distance', 226),
  ('O=C(Nc1ccc(-c2cc3ccc(O)cc3oc2=O)cc1)c1ccco1 [Compound 5a]', 'Total movement distance', 188.8),
  ('O=C(Nc1ccc(-c2cc3ccc(O)cc3oc2=O)cc1)c1cccc(Cl)c1 [Compound 4f]', 'Total movement distance', 223.2),
  ('COc1cccc2cc(-c3ccc(NC(=O)c4ccc(F)cc4)cc3)c(=O)oc12 [Compound 4k]', 'Total movement distance', 186.7),
  ('COc1cccc2cc(-c3ccc(NC(=O)c4cccc(Cl)c4Cl)cc3)c(=O)oc12 [Compound 4r]', 'Total movement distance', 182.4);

Next item in the queue.
Lab note: measured Total movement distance of COc1cccc2cc(-c3ccc(NC(=O)c4ccc5ccccc5c4)cc3)c(=O)oc12 [Compound 7b] was 278.4
